Test: Plasma pharmacokinetics in the doravirine/islatravir drug interaction study
Assay type: in vivo, human
Conditions: human, plasma, oral, 2.25 mg
measured.metric: AUC(0-t) (µM·h)

1. C#C[C@]1(CO)O[C@@H](n2cnc3c(N)nc(F)nc32)C[C@@H]1O [Islatravir, 4'-Ethynyl-2-fluoro-2'-deoxyadenosine] | 0.254

====

Assay: Plasma pharmacokinetics in the doravirine/islatravir drug interaction study
Type: in vivo, human
Conditions: human, plasma, oral, 100 mg
measured.metric: Cmax (nM)

1) Cn1c(Cn2ccc(C(F)(F)F)c(Oc3cc(Cl)cc(C#N)c3)c2=O)n[nH]c1=O | 2440

====

Assay: Plasma pharmacokinetics in the doravirine/islatravir drug interaction study
Type: in vivo, human
Conditions: human, plasma, oral, 2.25 mg
measured.metric: Cmax (nM)

1) C#C[C@]1(CO)O[C@@H](n2cnc3c(N)nc(F)nc32)C[C@@H]1O | 63.5

====

Test: Plasma pharmacokinetics in the doravirine/islatravir drug interaction study
Assay type: in vivo, human
Conditions: human, plasma, oral, 2.25 mg
measured.metric: Tmax (min)

1) C#C[C@]1(CO)O[C@@H](n2cnc3c(N)nc(F)nc32)C[C@@H]1O | 31.2

====

Experiment: Plasma pharmacokinetics in the doravirine/islatravir drug interaction study
Format: in vivo, human
Conditions: human, plasma, oral, 100 mg
measured.metric: concentration at 24 h

1. Cn1c(Cn2ccc(C(F)(F)F)c(Oc3cc(Cl)cc(C#N)c3)c2=O)n[nH]c1=O | 773 nM
